System: NCI-H23 lung
Assay: NCI tumour cell line growth inhibition, 48 h
Measured TGI by item
ATTRIBUTE_MEASURED: TGI

> print(dat)
                                    molecule  attribute.measured  readout.value
 1                 O=C1COCCN1C(=O)c1ccccc1Cl                 TGI       > 100 µM
 2  Nc1nc(-c2ccccc2)cc(-c2ccc(Cl)cc2)c1-c1nc2ccccc2o1                 TGI       > 100 µM
 3  C=C(C)[C@@H]1CC[C@]2(C(N)=O)CC[C@]3(C)[C@H](CC[C@@H]4[C@@]5(C)C/C(=C/c6cccnc6)[C@H](O)C(C)(C)[C@@H]5CC[C@]43C)[C@@H]12                 TGI       > 100 µM
 4  CCn1c2ccccc2c2cc(NC(=O)c3c(NCCNCCO)nc(=O)[nH]c3C)ccc21                 TGI       > 100 µM
 5  COc1ccc(C(SCC(N)C(=O)O)(c2ccc(OC)cc2)c2ccc(OC)cc2)cc1 (stereo not given)                 TGI        20.6 µM
 6  COc1ccc2nc(-c3cc4c([nH]c5ccccc54)c(-c4ccc(F)c(F)c4)n3)[nH]c2c1                 TGI        27.5 µM
 7     O=C(NNC(=O)c1nsc2ccccc12)c1ccc(Cl)cc1                 TGI        59.9 µM
 8  Nc1nc(=O)n(CC(O)CO)s1 (stereo not given)                 TGI       > 100 µM
 9             CCOC(=O)Nn1c(C)cc(C(=O)OC)c1C                 TGI       > 100 µM
10  COc1cc(C)c(NC(=O)CN(C)C)cc1Nc1nc(Nc2cccc(F)c2C(N)=O)c2cc[nH]c2n1                 TGI        6.02 µM
11  COc1ccc(C2S/C(=C\c3ccccc3)C(=O)N2NC(=O)Cc2ccccc2)cc1 (stereo not given)                 TGI       > 100 µM
12                   COc1ccc(N=CN(C)C)c(C)c1                 TGI        7.23 µM
13  O=C(CC(=O)N1N=C(N(c2ccccc2)c2ccccc2)CC1c1ccccc1)Nc1ccccc1 (stereo not given)                 TGI       > 100 µM
14  CC(C)C1COC(c2ccc3ccccc3c2-c2c(O[Si](C)(C)C(C)(C)C)ccc3ccccc23)=N1 (stereo not given)                 TGI        30.7 µM
15  CC1=C[C@@H]2[C@@H](CC(CO)=C[C@H]3[C@@H]4C(C)(C)[C@]4(OCC(C)C)[C@H](OCC(C)C)[C@@H](C)[C@]23O)C1=O                 TGI        5.81 µM
16  c1ccc2c(CNCCCCCCCCCCCCNCc3cccc4ccccc34)cccc2c1                 TGI        2.89 µM
17           c1cc(C[S+]2CCCC2)sc1C[S+]1CCCC1                 TGI       > 100 µM
18  C=CCC1C(=O)Nc2cccc3ncn(c23)C1=O (stereo not given)                 TGI       > 100 µM
19          O=C(Cc1ccccc1)NS(=O)(=O)c1ccccc1                 TGI       > 100 µM
20  CCc1ccccc1NC(=O)C(=O)CC(=O)c1sc(Nc2ccccc2Cl)nc1C                 TGI       > 100 µM
21  CC(C)c1ccc2nc3ccc(C(=O)NCCN4CCN(c5ccccc5)CC4)cn3c(=O)c2c1                 TGI       > 100 µM
22  COC1CC(OC)C(O)C(CO)O1 (stereo not given)                 TGI       > 100 µM
23       C=C(CN(C)C)C(=O)c1ccc(Oc2ccccc2)cc1                 TGI        24.9 µM
24  O=C(O)c1ccc(NNC(=O)c2cccc3c(=O)c4ccccc4[nH]c23)cc1                 TGI       > 100 µM
25  CCOC(=O)c1ccc(Nc2nc3cc(C(F)(F)F)ccc3nc2C(=O)OCC)cc1                 TGI       > 100 µM
26  Oc1c(CN2CCN(c3ccccc3F)CC2)cc(Br)c2cccnc12                 TGI        25.2 µM
27  Cc1c(CC/C(=N\Nc2ccc([N+](=O)[O-])cc2[N+](=O)[O-])c2ccccc2)c2ccccc2n1C                 TGI       > 100 µM
28     Cc1ccccc1NC(=O)c1ccc([N+](=O)[O-])cc1                 TGI       > 100 µM
29  COc1ccccc1NC(=O)C(CC(C(=O)Nc1ccccc1OC)/C(C)=N/NC(=O)c1ccccc1O)/C(C)=N/NC(=O)c1ccccc1O (stereo not given)                 TGI       > 100 µM
30  COc1cc(/C=C2\C[C@H]3[C@@H]4CC=C5C[C@@H](OC(C)=O)CC[C@]5(C)[C@H]4CC[C@]3(C)[C@H]2OC(C)=O)ccc1OCCN1CCCCC1                 TGI        > 50 µM
31  Nc1nc(-c2ccc(Cl)cc2)cc(-c2ccccc2)c1-c1nc2ccccc2o1                 TGI        34.6 µM
32  CCOP(=O)(OCC)C(Nc1ccc(C(=O)O)cc1)c1ccc(C(Nc2ccc(C(=O)O)cc2)P(=O)(OCC)OCC)cc1 (stereo not given)                 TGI       > 100 µM
33  Cc1ccc(C2SCC(=O)N2NC(=O)c2ccncc2)s1 (stereo not given)                 TGI       > 100 µM
34  NC(CC(=O)O)(Cc1ccccc1)C(=O)O (stereo not given)                 TGI       > 100 µM
35  C/C(=C\c1ccn(-c2ccc(N)cc2F)n1)[C@@H]1C[C@@H]2O[C@]2(C)CCC[C@H](C)[C@H](O)[C@@H](C)C(=O)C(C)(C)[C@@H](O)CC(=O)O1                 TGI        > 50 µM
36  O=C(OCc1ccccc1)N1CCCc2c(n(S(=O)(=O)c3ccccc3)c3ccccc23)C1                 TGI       > 100 µM
37                        Nc1nc(-c2cccs2)cs1                 TGI       > 100 µM
38  COc1ccc(C2CC(=O)c3c(O)c(OC)c(OC)c(OC)c3O2)cc1O (stereo not given)                 TGI       > 100 µM
39  COC(=O)C1=C(C)N(NC(N)=O)C(C)(O)C12CCOC2=O (stereo not given)                 TGI       > 100 µM
40  O=C1NC2C(CCO)CC=C[C@H]2c2cc3c(cc21)OCO3 (stereo not given in full)                 TGI       > 100 µM

From: PubChem BioAssay (NCI)
